Here the recorded %Inh is given for each entry.
# Tested on: BMX;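 also: KINOMEscan kinase panel screen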
# condition.label: concentration: 1 μM, replicates: in singlicate; n = 1
quantity.name: %Inh

molecule: CN(C)c1cc(-c2ccc3c(N)n[nH]c3c2)nc(N)n1 [GSK2219329]
result: 13%

molecule: COc1cc2nccc(Nc3cccc(Oc4ccccc4)c3)c2cc1OC.Cl [GW284543]
result: 0%

molecule: Nc1nccc2scc(-c3ccc4c(c3)CCN4C(=O)Cc3ccccc3)c12 [GSK2576924]
result: 19%

molecule: COc1ccc(-c2cc3c(C)nc(N)nc3n([C@H]3CC[C@H](O)CC3)c2=O)cn1
result: 0%

molecule: Cc1ccccc1COc1cc(-n2cnc3cc(Cl)ccc32)sc1C(N)=O [GW813349]
result: 1%

molecule: Cc1nn2c(=O)cc(N3CCOCC3)nc2n1Cc1cccc(Cl)c1Cl [GSK2342769]
result: 12%

molecule: CCC(=O)c1c(-c2ccccc2)c2cc(Cl)ccc2c(=O)n1Cc1ccc(C(=O)O)cc1
result: 0%

molecule: CCC(=O)c1c(-c2ccccc2)c2cc(Cl)ccc2c(=O)n1Cc1cc(S(C)(=O)=O)n(CC(N)=O)n1
result: 16%

molecule: Cc1nnc(-c2ccc3ncn(-c4ccc(S(C)=O)cc4)c3c2)o1 (stereo not drawn)
result: 12%
